# maps each entry to its Fold decrease in affinity
- test target: T1, human NMI (N-myc Interacting protein), recombinant protein (human, UniProt Q13287 1-307, limits assumed)
- T1 construct: Gene ID: 9111; also called hNMI; antigen
- T1 sequence (looked up): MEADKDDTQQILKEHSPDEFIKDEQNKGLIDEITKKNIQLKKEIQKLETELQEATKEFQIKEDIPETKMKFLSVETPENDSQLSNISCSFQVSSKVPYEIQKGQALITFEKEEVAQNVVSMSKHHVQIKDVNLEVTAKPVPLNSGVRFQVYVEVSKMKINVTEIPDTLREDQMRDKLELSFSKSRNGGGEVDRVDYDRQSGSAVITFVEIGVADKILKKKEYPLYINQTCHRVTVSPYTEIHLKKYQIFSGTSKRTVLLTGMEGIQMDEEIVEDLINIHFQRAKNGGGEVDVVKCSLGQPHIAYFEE
- assay remarks: ELISA EC50 against parent 98G10
Just the number in fold, nothing appended.

- 98G10-H-11 (antibody, V domains shown, also called 98G10 W34H, Y112R (VH)) VH: QEQLEESGGDLVKPEGSLTLTCTASGFSFSASYHICWVRQAPGKGLEWIACIYGGSSGSAYYASWAKGRFTISKTSSTTVTLQMTSLTAADTATYFCARAGYYNYGSAGDIRPSSFKLWGPGTLVTVSS VL: DIVMTQTPASVEAAVGGTVTINCQASQSISTALAWYQQKPGQPPKLLIYTASKVASGVPSRFSGSGSGTQFTLTISDLECADAATYYCQNYYYSSSSITFGGGTEVVVK: 0.84
- 98G10-H-1 (antibody, V domains shown, also called 98G10 W34H (VH)) VH: QEQLEESGGDLVKPEGSLTLTCTASGFSFSASYHICWVRQAPGKGLEWIACIYGGSSGSAYYASWAKGRFTISKTSSTTVTLQMTSLTAADTATYFCARAGYYNYGSAGDIYPSSFKLWGPGTLVTVSS VL: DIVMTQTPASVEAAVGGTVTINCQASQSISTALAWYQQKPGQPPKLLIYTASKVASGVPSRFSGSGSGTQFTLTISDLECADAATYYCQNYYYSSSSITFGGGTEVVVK: 0.77
- 98G10-H-9 (antibody, V domains shown, also called 98G10 W34H, Y112L (VH)) VH: QEQLEESGGDLVKPEGSLTLTCTASGFSFSASYHICWVRQAPGKGLEWIACIYGGSSGSAYYASWAKGRFTISKTSSTTVTLQMTSLTAADTATYFCARAGYYNYGSAGDILPSSFKLWGPGTLVTVSS VL: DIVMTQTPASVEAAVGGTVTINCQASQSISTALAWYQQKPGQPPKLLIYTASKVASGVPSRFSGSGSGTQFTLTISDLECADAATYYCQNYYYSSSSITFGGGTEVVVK: 10
- 98G10-H-2 (antibody, V domains shown, also called 98G10 W34Y (VH)) VH: QEQLEESGGDLVKPEGSLTLTCTASGFSFSASYYICWVRQAPGKGLEWIACIYGGSSGSAYYASWAKGRFTISKTSSTTVTLQMTSLTAADTATYFCARAGYYNYGSAGDIYPSSFKLWGPGTLVTVSS VL: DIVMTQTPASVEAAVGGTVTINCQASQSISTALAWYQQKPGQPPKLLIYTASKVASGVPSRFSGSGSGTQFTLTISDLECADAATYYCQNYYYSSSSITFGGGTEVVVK: 16.4

Next item in the queue.
Prompt: // Input: 98G10-H-6 (antibody, V domains shown, also called 98G10 Y112Q (VH)) VH: QEQLEESGGDLVKPEGSLTLTCTASGFSFSASYWICWVRQAPGKGLEWIACIYGGSSGSAYYASWAKGRFTISKTSSTTVTLQMTSLTAADTATYFCARAGYYNYGSAGDIQPSSFKLWGPGTLVTVSS VL: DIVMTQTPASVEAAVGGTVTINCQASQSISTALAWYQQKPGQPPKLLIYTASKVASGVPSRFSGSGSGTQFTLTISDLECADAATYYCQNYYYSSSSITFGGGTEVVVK . Output its Fold decrease in affinity only.
Completion: 2.97
